Method Summary: Binding affinity to Streptococcus pneumoniae mevalonate kinase
Measurement Name: Ki (nM)
Write the number in nM without appending the unit.

Value lookup for Ki; key = C[C@@](O)(CCOP(=O)(O)OP(=O)(O)O)CC(=O)O [DIPHOSPHOMELAVONATE]
500
